Test: reduction of polyQ htt aggregates in cells – imaging, exon1htt(103Q)mCFP cells, high-content imaging, primary screen (AID 483);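 note: compound exposure lasted 3 days before fixation; percent of the per-plate median nuclei count of sample wells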
Conditions: exon1htt(103Q)mCFP cell line, aggregate imaging, at 2 µM; measured here: cell count, toxicity
attributeMeasured: nuclei count (%)
One number for each entry, in %.

Provide nuclei count for all items below, preserving their order.
1. Cn1c(=O)c2c(nc(SCc3nn[nH]n3)n2Cc2ccccc2F)n(C)c1=O
2. CC(NC(=O)c1ccc(F)cc1)C(c1cccs1)N1CCN(C)CC1 (stereo unspecified)
3. COc1ccc(/C(O)=C2/C(=O)C(=O)N(Cc3cccnc3)C2c2ccncc2)cc1F (stereo unspecified)
4. Cc1cc2oc(C(=O)NC3CCS(=O)(=O)C3)c(C)c2cc1C (stereo unspecified)
5. COc1cc(NC(=O)Cc2nn(C)c(=O)c3ccccc23)cc(OC)c1
6. CSc1nnc2c3ccccc3n(CCc3ccccc3)c2n1
7. CC(=O)c1nnn(-c2nc(N3CCCC3)nc(N(c3ccccc3)c3ccccc3)n2)c1C

Completion:
1. 81.9
2. 93.6
3. 106
4. 97
5. 106
6. 83.8
7. 109

====

Test: endothelial E-selectin expression blockers – imaging, HUVEC, immunofluorescence, MLSMR starter and 10KST1 sets, primary screen (AID 487);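 note: 100% = median nuclei count of all wells on the same plate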
Conditions: HUVEC TNFalpha-induced E-selectin immunofluorescence imaging, at 2 µM; measured here: cell number, toxicity
attributeMeasured: nuclei count (%)
One number for each entry, in %.

Some solved entries appear below for comparison.
compound | attributeMeasured | readoutNumber
COc1ccc(-c2noc(CN3CCC(Cc4ccccc4)CC3)n2)cc1 | nuclei count | 123
COc1ccc(Cc2nnc3n2N=C(c2cc4ccccc4o2)CS3)cc1OC | nuclei count | 51.6
CC1CCN(CCCNC(=O)c2cn(C)c3ccc(S(=O)(=O)N4CCCC4)cc3c2=O)CC1 | nuclei count | 61.5
CCC(NS(=O)(=O)c1ccc(C)cc1)C(=O)N1CCC2(O)CCCCC2C1 (stereo not given) | nuclei count | 215

Next compound, please.
Prompt: Any idea what nuclei count was measured for "Cc1ccc(S(=O)(=O)N(CC(=O)N2CCC(C(N)=O)CC2)c2cccc(C(F)(F)F)c2)cc1" ?
Completion: 114

====

Test: TLR3 IRF3 reporter activation blockers – cell-based, poly I:C stimulus, luciferase, 10K MLSCN set, primary screen (AID 602277)
Conditions: HEK293-TLR3 RL24 IRF3 luciferase reporter, at 10 µM, stronger effect = higher value
Label 1 (yes) for high-side inhibition (at or above 10%) and 0 (no) for low-side inhibition (below it).

Known results for compounds:
compound | qualitativeLabel
Cc1cc(S(=O)(=O)n2cnc3ccccc32)c(C)cc1Cl | 1 (yes)
COC(=O)c1sc(NC(=O)COc2ccccc2OC)nc1C | 0 (no)
CCn1cc(C(=O)NCC2COc3ccccc3O2)c2cc(OC)c(OC)cc2c1=O (stereo unspecified) | 0 (no)
Cc1cc(O)c(NC(=O)c2ccc(Br)o2)cc1C | 0 (no)

In the following, a different compound is considered.
Prompt: Item "CCOC(=O)CSc1nc2ccccc2c(=O)n1CCN1CCOCC1" with inhibition of 10% or above?
Completion: 1 (yes)

====

Would you mind telling me the reported cell count of each entry?
Experiment: inhibitors of TNFa-induced NFkB p65 translocation, primary screen, imaging, HUVEC, MLSMR starter and 10KST1 sets (AID 438);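 note: compound added about 3h40 before a 20 min TNFalpha stimulation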
Conditions: HUVEC TNFa-induced p65 nuclear translocation; measured here: nuclei count (cytotoxicity indicator), at 2.08 µM
Give bare numbers.

Some solved entries appear below for comparison.
compound | readoutNumber
COC(=O)Cn1cnc2c(nnn2-c2ccc(C)cc2)c1=O | 257
CCSc1oc(-c2ccco2)nc1S(=O)(=O)c1ccccc1 | 584
O=C(Nc1ccc(S(=O)(=O)NC2CCCC2)cc1)c1cnccn1 | 288

Provide cell count for all items below, preserving their order.
1. O=C(O)C1CSC2c3ccccc3C(=O)N12 (stereo unspecified)
2. C[C@H](NC(=O)Nc1ccccc1F)C(=O)O
3. COc1cc(C)nc(NS(=O)(=O)c2ccc(C)cc2)n1
4. Cc1ccc(-c2csc3nnc(SCC(=O)NCc4ccco4)n23)cc1
5. COc1ccccc1-c1ccc(Nc2cccc(C(C)=O)c2)nn1
6. CCN1C(=O)NC(c2cc(Br)ccc2OC)C(C(=O)OC)=C1C (stereo unspecified)
7. Cc1ccc(S(=O)(=O)n2nc(OC(=O)c3ccco3)cc2N)cc1

Completion:
[729, 294, 399, 656, 319, 451, 512]

Provide cell count for all items below, preserving their order.
1. COc1ccc(-c2cnc(SCC(=O)Nc3ccc4c(c3)OCO4)n2Cc2ccco2)cc1
2. CCCCOC(=O)Cn1c(=N)n(CCN2CCOCC2)c2ccccc21
3. CCOC(=O)CN1C2=NCCN2c2ccccc21
4. O=C(CP(=O)(CO)CO)c1ccc(Cl)cc1

Completion:
[450, 488, 428, 863]

Provide cell count for all items below, preserving their order.
1. O=c1c(-c2ccc(F)cc2)coc2c3c(ccc12)OCCO3
2. COc1cc(-c2noc(-c3cccc(Cl)c3)n2)cc(OC)c1OC
3. COC(=O)Cn1c2c(c3cc(C)ccc31)CCCC2
4. CC(=O)Nc1nc(-c2ccc(Cl)cc2)nc(C)c1C(C)=O
5. CCOC(=O)c1ccc(NC(=O)N2CCN(CCc3ccccc3)CC2)cc1

Completion:
1: 337; 2: 778; 3: 640; 4: 577; 5: 361
